Test: Tissue distribution of toremifene and metabolites after 5 days IP vs. topical toremifene (HPLC), mice with MDA A-1 tumors
Conditions: mouse, uterus, ip, 1 mg
assay_readout: concentration at 2 h

> print(dat)
                                   compound  reported.measurement
1  CN(C)CCOc1ccc(/C(=C(/CCCl)c2ccccc2)c2ccc(O)cc2)cc1 [4-hydroxytoremifene]              830 ng/g
2  CNCCOc1ccc(C(=C(CCCl)c2ccccc2)c2ccccc2)cc1             1180 ng/g

====

Experiment: Tissue distribution of toremifene and metabolites after 5 days IP vs. topical toremifene (HPLC), mice with MDA A-1 tumors
Conditions: mouse, liver, topical or ocular, 2.5 mg
Attribute: concentration at 2 h
assay_readout: concentration at 2 h (ng/g)

> print(dat)
                                   molecule  reported.measurement
1  CN(C)CCOc1ccc(/C(=C(/CCCl)c2ccccc2)c2ccc(O)cc2)cc1 [4-hydroxytoremifene]                   980
2  CNCCOc1ccc(C(=C(CCCl)c2ccccc2)c2ccccc2)cc1 [N-demethyltoremifene]                   920

The measurements presented in this section are drawn from patent US5605700A.
